Ref: patent EP4678638A1

Examples of compounds with documented IC50 follow.
Tested on: H1975
Assay: CCK-8 proliferation, NCI-H1975 (H1975)
Format: cell-based, Human
Details: Homo sapiens, NCI-H1975; CCK-8; 96 hours; read-out: Inhibitory activity (IC50) on tumor cell proliferation, H1975

O=C1CCN(c2ccc(CN3CCN(c4ccc(Nc5ncc6nc(Nc7ccccc7)n(C7CCCC7)c6n5)cc4)CC3)cn2)C(=O)N1	100 to 500 nM
O=C1CCN(c2ccc(CN3CCC(N4CCN(c5ccc(-c6cc(F)c7c(c6)C(=O)N(C(C(=O)Nc6nccs6)c6ncn8c6CCC8)C7)cc5)CC4)CC3)nc2)C(=O)N1 (stereo not shown)	1 to 10 nM
O=C1CCC(c2cnc(F)c(CN3C[C@H]4C[C@@H]3CN4c3ccc(-c4cc(F)c5c(c4)C(=O)N(C(C(=O)Nc4nccs4)c4ncn6c4CCC6)C5)cc3)c2)C(=O)N1 (stereo partly shown)	10 to 50 nM
CNC(=O)c1ccccc1Nc1cc(Nc2ccc(N3CCN(Cc4ccc(C5CCC(=O)NC5=O)c(F)c4)CC3)cc2OC)ncc1C(F)(F)F (stereo not shown)	500 to 1000 nM
O=C1CCN(c2ccc(CN3CCN(C4CCN(c5ccc(Nc6ncc7nc(Nc8ccccc8)n(C8CCCC8)c7n6)cc5)CC4)CC3)cc2)C(=O)N1	100 to 500 nM

Input: Which measured IC50 value corresponds to NC(=O)c1ncc(N2CCCCC2)nc1Nc1ccc(C2CCN(Cc3ccc(N4CCC(=O)NC4=O)cc3)CC2)cc1 ?
Output: 500 to 1000 nM

Input: Which measured IC50 value corresponds to O=C1CCC(c2cc(CN3CCN(c4ccc(-c5cc(F)c6c(c5)C(=O)N(C(C(=O)Nc5nccs5)c5ncn7c5CCC7)C6)cc4)CC3)ccn2)C(=O)N1 (stereo not shown) ?
Output: 1 to 10 nM

Input: Which measured IC50 value corresponds to O=C1CCN(c2ccc(CN3CCC(N4CCN(c5ccc(-c6cc(F)c7c(c6)C(=O)N(C(C(=O)Nc6nccs6)c6ncn8c6CCC8)C7)cc5)CC4)CC3)cc2)C(=O)N1 (stereo not shown) ?
Output: 1 to 10 nM

Input: Which measured IC50 value corresponds to Cc1nc2c(F)cc(-c3nc(Nc4ccc(N5CCC(N(C)Cc6ccc(N7CCC(=O)NC7=O)cc6)CC5)cn4)ncc3F)cc2n1C(C)C ?
Output: 100 to 500 nM

----------
System: H1975
Assay: CCK-8 proliferation, NCI-H1975 (H1975)
Format: cell-based, Human
Details: Homo sapiens, NCI-H1975; CCK-8; 96 hours; read-out: Inhibitory activity (IC50) on tumor cell proliferation, H1975
Examples of compounds with documented IC50 follow.

CNC(=O)c1ccccc1Nc1cc(Nc2ccc(N3CCC(N4CCN(Cc5ccc(C6CCC(=O)NC6=O)c(F)c5)CC4)CC3)cc2OC)ncc1C(F)(F)F (stereo not shown)	500 to 1000 nM

Input: Which measured IC50 value corresponds to O=C1CCC(c2ccc(CN3C[C@H]4C[C@@H]3CN4c3ccc(-c4cc(F)c5c(c4)C(=O)N(C(C(=O)Nc4nccs4)c4ncn6c4CCC6)C5)cc3)nc2)C(=O)N1 (stereo partly shown) ?
Output: 1 to 10 nM

Input: Which measured IC50 value corresponds to Cc1nc2c(F)cc(-c3nc(Nc4ccc(N5CCC(N(C)Cc6cccc(N7CCC(=O)NC7=O)c6)CC5)cn4)ncc3F)cc2n1C(C)C ?
Output: 100 to 500 nM

Input: Which measured IC50 value corresponds to CN1CCN([C@@H]2CCCN(c3cnc(C(N)=O)c(Nc4ccc(C5CCN(Cc6ccc(C7CCC(=O)NC7=O)cc6)CC5)cc4)n3)C2)C1=O (stereo partly shown) ?
Output: 500 to 1000 nM

Input: Which measured IC50 value corresponds to O=C1CCC(Nc2cccc(CN3CCC(N4CCN(c5ccc(-c6cc(F)c7c(c6)C(=O)N(C(C(=O)Nc6nccs6)c6ncn8c6CCC8)C7)cc5)CC4)CC3)c2)C(=O)N1 (stereo not shown) ?
Output: 10 to 50 nM

Input: Which measured IC50 value corresponds to O=C1CCN(c2ccc(CN3CCN(c4ccc(Nc5ncc6nc(Nc7ccccc7)n(C7CCCC7)c6n5)cc4)CC3)nc2)C(=O)N1 ?
Output: 100 to 500 nM

Input: Which measured IC50 value corresponds to O=C1CCN(c2ccc(CN3C4CCC3CN(c3ccc(-c5cc(F)c6c(c5)C(=O)N(C(C(=O)Nc5nccs5)c5ncn7c5CCC7)C6)cc3)C4)nc2)C(=O)N1 (stereo not shown) ?
Output: 1 to 10 nM

----------
System: H1975-1µM Osimertinib cells
Experiment: CCK-8 proliferation, osimertinib-resistant H1975 cells
Format: cell-based, Human
Conditions: Homo sapiens, NCI-H1975; CCK-8; osimertinib-resistant H1975 cells obtained by treating H1975 cells with 1 µM Osimertinib for 3 months; read-out: Inhibitory activity (IC50) on tumor cell proliferation, H1975-1µm Osimertinib
test_readout: IC50

CC(C)n1nc(N2CCC(N(C)Cc3ccc(N4CCC(=O)NC4=O)cc3)CC2)c2cnc(Nc3ccnc(-c4cnn(S(=O)(=O)C5CC5)c4)n3)cc21	500 to 1000 nM

Please turn your attention to the following entry.
Input: Which measured IC50 value corresponds to CC(C)n1nc(N2CCC(N3CCN(Cc4ccc(N5CCC(=O)NC5=O)nc4)CC3)CC2)c2cnc(Nc3ccnc(-c4cnn(S(=O)(=O)C5CC5)c4)n3)cc21 ?
Output: 10 to 50 nM

----------
Examples of compounds with documented IC50 follow.
Tested on: CCRF-CEM
Test: CCK-8 proliferation, CCRF-CEM
Assay type: cell-based, Human
Conditions: Homo sapiens, CCRF-CEM; CCK-8; 96 hours; read-out: Inhibitory activity (IC50) on tumor cell proliferation, CCRF-CEM

Cc1nc2c(F)cc(-c3nc(Nc4ccc(N5CCC(N6CCN(Cc7cccc(NC8CCC(=O)NC8=O)c7)CC6)CC5)cn4)ncc3F)cc2n1C(C)C (stereo not drawn)	100 to 500 nM

Input: Which measured IC50 value corresponds to Cc1nc2c(F)cc(-c3nc(Nc4ccc(CN5CCN(Cc6ccc(N7CCC(=O)NC7=O)cc6)CC5)cn4)ncc3F)cc2n1C(C)C ?
Output: 500 to 1000 nM

----------
System: H1975
Assay: CCK-8 proliferation, NCI-H1975 (H1975)
Format: cell-based, Human
Conditions: Homo sapiens, NCI-H1975; CCK-8; 96 hours; read-out: Inhibitory activity (IC50) on tumor cell proliferation, H1975
test_readout: IC50

Consider the following illustrative entries.
O=C1CCN(c2cncc(CN3C[C@H]4C[C@@H]3CN4c3ccc(-c4cc(F)c5c(c4)C(=O)N(C(C(=O)Nc4nccs4)c4ncn6c4CCC6)C5)cc3)c2)C(=O)N1 (stereo partly shown) [GT-07388]	1 to 10 nM
CN(Cc1ccc(C2CCC(=O)NC2=O)cc1)C1CCN(c2ccc(Nc3ncc4nc(Nc5ccccc5)n(C5CCCC5)c4n3)cc2)CC1 (stereo not shown) [GT-03863]	100 to 500 nM
CN(Cc1ccc(C2CCC(=O)NC2=O)c(F)c1)C1CCN(c2ccc(Nc3ncc4nc(Nc5ccccc5)n(C5CCCC5)c4n3)cc2)CC1 (stereo not shown) [GT-03864]	100 to 500 nM
O=C1CCN(c2ccc(CN3CCN(C4CCN(c5ccc(-c6cc(F)c7c(c6)C(=O)N(C(C(=O)Nc6nccs6)c6ncn8c6CCC8)C7)cc5)CC4)CC3)cc2)C(=O)N1 (stereo not shown) [GT-06244]	1 to 10 nM
O=C1CCC(c2ccc(CN3CCN(c4ccc(-c5cc(F)c6c(c5)C(=O)N(C(C(=O)Nc5nccs5)c5ncn7c5CCC7)C6)cc4)CC3)nc2)C(=O)N1 (stereo not shown) [GT-07381]	1 to 10 nM

Input: Which measured IC50 value corresponds to O=C1CCN(c2ccc(CN3C[C@H]4C[C@@H]3CN4c3ccc(-c4cc(F)c5c(c4)C(=O)N(C(C(=O)Nc4nccs4)c4ncn6c4CCC6)C5)cc3)nc2)C(=O)N1 (stereo partly shown) [GT-06190] ?
Output: 1 to 10 nM

----------
Examples of compounds with documented pIC50 follow.
System: H1975-1µM Osimertinib cells
Assay: CCK-8 proliferation, osimertinib-resistant H1975 cells
Format: cell-based, Human
Details: Homo sapiens, NCI-H1975; CCK-8; osimertinib-resistant H1975 cells obtained by treating H1975 cells with 1 µM Osimertinib for 3 months; read-out: Inhibitory activity (IC50) on tumor cell proliferation, H1975-1µm Osimertinib
pIC50: −log10 of the molar value.

Consider the following illustrative entries.
O=C1CCC(Nc2cccc(CN3CCN(c4ccc(-c5cc(F)c6c(c5)C(=O)N(C(C(=O)Nc5nccs5)c5ncn7c5CCC7)C6)cc4)CC3)c2)C(=O)N1 (stereo not shown) [GT-06188]	> 9.00
COc1cc(N2CCC(N3CCN(Cc4cccc(N5CCC(=O)NC5=O)c4)CC3)CC2)c(C)cc1Nc1ncc(Br)c(Nc2ccc3nccnc3c2P(C)(C)=O)n1 [GT-04260]	6.30 to 7.00
CC(C)n1nc(N2CCC(N3CCN(Cc4cccc(N5CCC(=O)NC5=O)c4)CC3)CC2)c2cnc(Nc3ccnc(-c4cnn(S(=O)(=O)C5CC5)c4)n3)cc21 [GT-06080]	6.00 to 6.30

Input: Which measured pIC50 value corresponds to COc1cc(N2CCC(N(C)Cc3ccc(N4CCC(=O)NC4=O)cn3)CC2)c(C)cc1Nc1ncc(Br)c(Nc2ccc3nccnc3c2P(C)(C)=O)n1 [GT-05952] ?
Output: 6.00 to 6.30
